Below, each entry is listed alongside its reported selectivity ratio.
- assay-info: Selectivity index, ratio of CC50 for human MT4 cells to EC50 for antiviral activity against HIV1 NL4-3
- Assay type: toxicity
recorded-metric: selectivity ratio

1) Cc1cn([C@H]2C[C@H](N=[N+]=[N-])[C@@H](CO)O2)c(=O)[nH]c1=O : > 20.6
2) C=C(C)[C@@H]1CC[C@]2(C(=O)O)CC[C@]3(C)[C@H](CC[C@@H]4[C@@]5(C)CC[C@H](OC(=O)CC(C)(C)C(=O)O)C(C)(C)[C@@H]5CC[C@]43C)[C@@H]12 : > 326
3) C=C(C)[C@@H]1CC[C@]2(C(=O)OC)CC[C@]3(C)[C@H](CC[C@@H]4[C@@]5(C)C[C@@H](Cc6cn([C@]7(CO)O[C@@H](n8ccc(N)nc8=O)[C@@H](F)[C@@H]7O)nn6)C(=O)C(C)(C)[C@@H]5CC[C@]43C)[C@@H]12 : > 260

====

Attribute: log10 IC50
- assay-info: Antiviral activity against HIV 1 NL4-3 infected in human MT4 cells assessed as reduction in viral replication and measured on day 3 post infection by Nano-glo luciferase reporter assay
- Assay type: functional, cell-based
- condition-parameters: Homo sapiens, NL4-3, MT4, 72 h; read-out: IC50
recorded-metric: log10 IC50 (log10 of the value in nM)

1) C=C(C)[C@@H]1CC[C@]2(C(=O)O)CC[C@]3(C)[C@H](CC[C@@H]4[C@@]5(C)C[C@@H](Cc6cn([C@]7(CO)O[C@@H](n8ccc(O)nc8=O)[C@@H](F)[C@@H]7O)nn6)[C@H](O)C(C)(C)[C@@H]5CC[C@]43C)[C@@H]12 : 1.30
2) C=C(C)[C@@H]1CC[C@]2(C(=O)OC)CC[C@]3(C)[C@H](CC[C@@H]4[C@@]5(C)C[C@@H](Cc6cn([C@]7(CO)O[C@@H](n8ccc(N)nc8=O)[C@@H](F)[C@@H]7O)nn6)[C@H](O)C(C)(C)[C@@H]5CC[C@]43C)[C@@H]12 : 1.68
3) [N-]=[N+]=N[C@]1(CO)O[C@@H](n2ccc(=O)[nH]c2=O)[C@@H](F)[C@@H]1O : 2.34
4) C=C(C)[C@@H]1CC[C@]2(C(=O)O)CC[C@]3(C)[C@H](CC[C@@H]4[C@@]5(C)C[C@@H](Cc6cn([C@]7(CO)O[C@@H](n8ccc(N)nc8=O)[C@@H](F)[C@@H]7O)nn6)[C@H](O)C(C)(C)[C@@H]5CC[C@]43C)[C@@H]12 : 0.89
5) [N-]=[N+]=N[C@]1(CO)O[C@@H](n2ccc(N)nc2=O)[C@@H](F)[C@@H]1O : -0.58
6) Cc1cn([C@H]2C[C@H](N=[N+]=[N-])[C@@H](CO)O2)c(=O)[nH]c1=O : 1.26
7) C=C(C)[C@@H]1CC[C@]2(C(=O)OC)CC[C@]3(C)[C@H](CC[C@@H]4[C@@]5(C)C[C@@H](Cc6cn([C@]7(CO)O[C@@H](n8ccc(N)nc8=O)[C@@H](F)[C@@H]7O)nn6)C(=O)C(C)(C)[C@@H]5CC[C@]43C)[C@@H]12 : 1.99

====

// reported CC50 at 72 h for each item listed
- assay-info: Cytotoxicity against human MT4 cells treated for 3 days measured by Celltiter-glo luminescent assay
- Format: cell-based
- condition-parameters: time 3 day
recorded-metric: CC50 at 72 h

1) C=C(C)[C@@H]1CC[C@]2(C(=O)OC)CC[C@]3(C)[C@H](CC[C@@H]4[C@@]5(C)C[C@@H](Cc6cn([C@]7(CO)O[C@@H](n8ccc(N)nc8=O)[C@@H](F)[C@@H]7O)nn6)[C@H](O)C(C)(C)[C@@H]5CC[C@]43C)[C@@H]12 : > 25.2 µM
2) [N-]=[N+]=N[C@]1(CO)O[C@@H](n2ccc(N)nc2=O)[C@@H](F)[C@@H]1O : 0.0996 µM
3) C=C(C)[C@@H]1CC[C@]2(C(=O)OC)CC[C@]3(C)[C@H](CC[C@@H]4[C@@]5(C)C[C@@H](Cc6cn([C@]7(CO)O[C@@H](n8ccc(N)nc8=O)[C@@H](F)[C@@H]7O)nn6)C(=O)C(C)(C)[C@@H]5CC[C@]43C)[C@@H]12 : > 25.2 µM
4) C=C(C)[C@@H]1CC[C@]2(C(=O)O)CC[C@]3(C)[C@H](CC[C@@H]4[C@@]5(C)C[C@@H](Cc6cn([C@]7(CO)O[C@@H](n8ccc(N)nc8=O)[C@@H](F)[C@@H]7O)nn6)[C@H](O)C(C)(C)[C@@H]5CC[C@]43C)[C@@H]12 : 9.6 µM
5) C=C(C)[C@@H]1CC[C@]2(C(=O)O)CC[C@]3(C)[C@H](CC[C@@H]4[C@@]5(C)C[C@@H](Cc6cn([C@H]7C[C@H](n8cc(C)c(O)nc8=O)O[C@@H]7CO)nn6)[C@H](O)C(C)(C)[C@@H]5CC[C@]43C)[C@@H]12 : > 1.3 µM
6) Cc1cn([C@H]2C[C@H](N=[N+]=[N-])[C@@H](CO)O2)c(=O)[nH]c1=O : > 0.37 µM

Numbers sourced from ChEMBL document CHEMBL4725481.
